Taken from patent US9643964B2.

- tgt: Recombinant Human NF-kappaB-Inducing Kinase (NIK/MAP3K14) (Homo sapiens)
- Sequence (Q99558 whole entry): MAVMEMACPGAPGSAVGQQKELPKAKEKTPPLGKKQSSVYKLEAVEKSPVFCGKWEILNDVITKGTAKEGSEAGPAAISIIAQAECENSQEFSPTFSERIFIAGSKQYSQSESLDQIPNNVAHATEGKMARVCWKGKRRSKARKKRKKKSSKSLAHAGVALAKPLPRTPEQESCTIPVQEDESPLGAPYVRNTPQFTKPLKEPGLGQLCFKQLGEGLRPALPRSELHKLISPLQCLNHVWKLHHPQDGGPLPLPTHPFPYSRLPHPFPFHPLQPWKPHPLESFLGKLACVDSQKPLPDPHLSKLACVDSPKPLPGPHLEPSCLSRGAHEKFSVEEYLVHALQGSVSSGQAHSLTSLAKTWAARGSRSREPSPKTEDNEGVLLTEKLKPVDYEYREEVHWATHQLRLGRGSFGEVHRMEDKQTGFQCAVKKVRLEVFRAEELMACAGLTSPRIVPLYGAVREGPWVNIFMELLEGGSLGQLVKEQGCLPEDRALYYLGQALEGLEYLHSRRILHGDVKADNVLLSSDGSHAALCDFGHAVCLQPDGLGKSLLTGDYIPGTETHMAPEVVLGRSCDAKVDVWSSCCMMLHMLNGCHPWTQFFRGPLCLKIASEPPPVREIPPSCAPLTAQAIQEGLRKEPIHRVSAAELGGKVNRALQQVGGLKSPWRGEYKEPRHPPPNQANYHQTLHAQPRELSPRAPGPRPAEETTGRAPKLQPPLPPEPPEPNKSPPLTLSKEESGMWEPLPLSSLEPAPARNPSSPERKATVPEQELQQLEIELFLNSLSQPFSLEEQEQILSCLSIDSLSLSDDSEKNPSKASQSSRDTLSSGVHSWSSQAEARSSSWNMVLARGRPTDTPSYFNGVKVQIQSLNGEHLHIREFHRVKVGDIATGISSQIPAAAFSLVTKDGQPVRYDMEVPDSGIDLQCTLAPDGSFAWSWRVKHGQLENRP
- test protocol: Biological Assay A: inhibition of recombinant human NIK/MAP3K14 activity (MBP phosphorylation, Mesoscale)
- Format: biochemical
- condition set: averaged over all measurements on all batches; read-out: Biochemical (MSD MBP) IC50
In this section, each of the molecules is paired with its reported IC50.

molecule: CN1CC(n2cc(-c3ccnc(N)n3)c3cc(C#CC(C)(C)O)ncc32)C1 [Compound 34]
IC50 (nM): 76

molecule: CN(C)C(=O)Cn1cc(-c2ccnc(N)n2)c2cc(C#CC(C)(C)O)ncc21 [Compound 30]
IC50 (nM): 120

molecule: CNc1nccc(-c2cn(CC(C)(C)O)c3cnc(C#CC(C)(C)O)cc23)n1 [Compound 68]
IC50 (nM): 130

molecule: CC(C)(O)C#Cc1cc2c(-c3nc(N)ncc3F)cn(CC(C)(C)O)c2cn1 [Compound 64]
IC50 (nM): 5.2

molecule: CC(C)(O)C#Cc1cc2c(-c3ccnc(N)n3)cn(CC#N)c2cn1 [Compound 56]
IC50 (nM): 25

molecule: CCC(C)(O)C#Cc1cc2c(-c3ccnc(N)n3)cn(CC(C)(C)O)c2cn1 (centres unmarked) [Compound 43]
IC50 (nM): 29

molecule: CC(C)n1cc(-c2nc(N)ncc2CCCN)c2cc(C#CC(C)(C)O)ncc21 [Compound 118]
IC50 (nM): 240

molecule: CC(C)(O)C#Cc1cc2c(-c3ccnc(N)n3)cn(CC3COC3)c2cn1 [Compound 28]
IC50 (nM): 17

molecule: CC(C)(O)Cn1cc(-c2nc(N)ncc2Cl)c2cc(C#CC3(O)CCCC3)ncc21 [Compound 33]
IC50 (nM): 4.2

molecule: COCCn1cc(-c2ccnc(N)n2)c2cc(C#CC(C)(O)C3CC3)ncc21 (centres unmarked) [Compound 32]
IC50 (nM): 59

molecule: CC(C)(O)C#Cc1cc2c(-c3ccnc(N)n3)cn(CCS(C)(=O)=O)c2cn1 [Compound 67]
IC50 (nM): 57

molecule: CC(C)(O)C#Cc1cc2c(-c3ccnc(N)n3)cn(CCCN3CC(=O)NC3=O)c2cn1 [Compound 117]
IC50 (nM): 100

molecule: COCCNC(=O)c1c(-c2ccnc(N)n2)c2cc(C#CC(C)(C)O)ncc2n1C [Compound 69]
IC50 (nM): 250

molecule: CC(C)n1cc(-c2nc(N)ncc2Cl)c2cc(C#CC(C)(C)O)ncc21 [Compound 16]
IC50 (nM): 4.3

molecule: COCCn1cc(-c2ccnc(N)n2)c2cc(C#CC(C)(O)c3nccs3)ncc21 (centres unmarked) [Compound 26]
IC50 (nM): 49

molecule: COCCn1cc(-c2ccnc(N)n2)c2cc(C#CC(C)(C)O)ncc21 [Compound 2]
IC50 (nM): 9.7

molecule: CC(C)(O)C#Cc1cc2c(-c3ccnc(N)n3)cn(C3CNC3)c2cn1 [Compound 113]
IC50 (nM): 52
